Entry source: ChEMBL document CHEMBL3988442

Catalogue of Percent Effect readings, one per entry.
measurement_target: Protein translocase subunit SecA (Escherichia coli (strain K12))
protocol_details: Assay to Identify E. coli SecA ATPase Inhibitors
Format: functional
Parameters: scale not given: direction of the effect not stated beside the values
particulars: 30 µM
Entries with a potency or affinity are not part of this list.
Could you give me the number in %? Just the number is fine.

Cc1ccc(CC(=O)N(C)CC2(O)CCN(c3ccccn3)C2)s1 (configuration not stated); -3.85
Cc1csc(CNC(=O)NCC(O)c2cccc(Cl)c2)n1 (configuration not stated); -1.7
COCc1cc(NCc2cc(F)ccc2F)n2nccc2n1; -3.49

Query Cc1noc(C(C)C)c1C(=O)NS(=O)(=O)c1ccc2c(c1)OCCCO2 yields Percent Effect of -0.953

Given item COc1ccc(CCN2CCN(C(=O)c3scnc3C)CC2)cc1 , the value recorded as its Percent Effect is -2.7

The value of Percent Effect measured for the molecule CCc1cnc(CN(C(C)=O)C2CCN(CCc3cnn(C)c3)C2)o1 (configuration not stated) turned out to be -2.73

Documented Percent Effect of NS(=O)(=O)CCNC(=O)c1nnn(-c2ccccc2)c1C1CC1 : 0.0352

----------
Percent Effect: recorded values
measurement_target: Protein translocase subunit SecA (Escherichia coli (strain K12))
protocol_details: Assay to Identify E. coli SecA ATPase Inhibitors
Format: functional
Parameters: scale not given: direction of the effect not stated beside the values
particulars: 30 µM
Results with a measured potency or affinity are listed apart.
Field: numeric (%). Do not append units.

COc1ccc(Br)c(C(=O)N2CCC(c3n[nH]c(C4CC4)n3)CC2)c1; -4.1
CN(Cc1nccn1CC(F)(F)F)C(=O)c1ccc(F)c(F)c1; -4.78
CCO[C@@H]1CO[C@@]2(CCCN(Cc3scnc3C)C2)C1; -2.88
COC(=O)c1cc(C(=O)N2CCCCCC2)n(-c2ccccc2)n1; -5.27
COCCOCC(=O)Nc1ccc(Br)cc1F; -4.21

Recorded result, CCOCCCNC(=O)c1cc(C(C)C)nc(N2CCCCCC2)n1 , Percent Effect: 0.305

----------
measurement_target: Tyrosyl-tRNA synthetase, putative (Trypanosoma cruzi (strain CL Brener)) (UniProt Q4DSP6)
Sequence (Q4DSP6 as listed by the source): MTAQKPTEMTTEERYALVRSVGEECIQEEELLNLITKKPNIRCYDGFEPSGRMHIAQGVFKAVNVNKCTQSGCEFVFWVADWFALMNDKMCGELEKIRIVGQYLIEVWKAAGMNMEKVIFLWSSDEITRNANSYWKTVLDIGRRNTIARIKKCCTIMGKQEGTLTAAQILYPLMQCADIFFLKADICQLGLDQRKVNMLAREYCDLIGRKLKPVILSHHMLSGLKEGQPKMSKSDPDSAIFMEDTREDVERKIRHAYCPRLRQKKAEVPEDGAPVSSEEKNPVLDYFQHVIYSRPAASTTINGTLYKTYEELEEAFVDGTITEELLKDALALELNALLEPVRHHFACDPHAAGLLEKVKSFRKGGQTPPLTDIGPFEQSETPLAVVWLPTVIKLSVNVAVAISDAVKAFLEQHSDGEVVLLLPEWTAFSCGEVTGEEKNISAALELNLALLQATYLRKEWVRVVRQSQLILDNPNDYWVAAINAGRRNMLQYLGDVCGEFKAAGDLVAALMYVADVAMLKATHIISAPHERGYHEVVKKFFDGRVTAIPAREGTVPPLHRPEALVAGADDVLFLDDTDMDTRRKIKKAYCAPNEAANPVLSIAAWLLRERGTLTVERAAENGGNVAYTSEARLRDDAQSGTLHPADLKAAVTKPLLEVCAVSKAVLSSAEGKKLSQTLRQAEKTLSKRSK
protocol_details: Trypanosoma cruzi tyrosyl tRNA synthetase (TcYRS) SOP
Format: functional
Parameters: scale not given: direction of the effect not stated beside the values
particulars: 30 µM
reported_endpoint: Percent Effect (%)
Just the number in %, nothing appended.

Field: example entries. Status: answers known.
Cc1cnn(CCCNC(=O)N2CCCCC(N3CCCC3)C2)c1 (stereo not drawn); 19.5
CCCNC(=O)c1cc2c(nc1O)CCC(C)C2 (stereo not drawn); 10.3
O=C(NCC1CC1)C1=NOC2(CCN(Cc3ccc4c(c3)OCO4)C2)C1 (stereo not drawn); -17.5
CC(=O)N1CCN(C(=O)CCCc2nc(C(C)C)no2)CC1; -1.27

Record summary for CCCc1n[nH]c(C2CN(CCCS(C)(=O)=O)CCO2)n1 (stereo not drawn) : reported Percent Effect = 10.1

The recorded Percent Effect for entry CCNC(=O)N1CCCCC1CCNS(C)(=O)=O (stereo not drawn) equals 9.76

Percent Effect reading for Cc1nc(O)c2nnn(C[C@H]3CCCN3C(=O)CCC3CCCC3)c2n1 : -1.3

Percent Effect in this record for CCc1nc(CN2CCCN(Cc3cnn(C)c3)CC2)no1 : 12.5

The recorded Percent Effect for Cc1ccc(C(=O)NC2CCN(Cc3noc(CC(C)C)n3)CC2)s1 is 1.24
